System: U-251
Test: NCI tumour cell line growth inhibition, 48 h
Calls of active or inactive are those of the source. Cut-off read from the data, not from the text of the source: active = GI50 up to about 1.1 µM and inactive = higher.
Reply using exactly one outcome from active, inactive

As a guide, the following entries are already answered.
> print(dat)
                                   compound       cat
1  C=C(C)[C@@]1(OC(=O)c2cc([N+](=O)[O-])cc([N+](=O)[O-])c2)C[C@@H]2CCCC[C@@H]21  inactive
2  CCOc1cc2c(cc1OC(C)=O)C(=O)CC[C@H]1C3CC[C@H](OC(C)=O)[C@@]3(C)CC[C@H]21 (stereo partly drawn)  inactive
3  COc1ccc(N[C@H](C[S+]([O-])c2ccc(C)cc2)C(F)(F)F)cc1 (stereo partly drawn)  inactive
4   O=C(Sc1sc(=S)sc1SC(=O)c1ccccc1)c1ccccc1  inactive
5  CC1(C)C2CCC1(C)C(NC(=O)COCCOCC(N)=O)C2 (stereo not drawn)  inactive

Asked: # outcome recorded in this test, key = "CNc1ncccc1Nc1cc(=O)n2c3cccnc3n(C)c2c1"
Given back: inactive

Asked: Please state the recorded outcome for this compound: "C/C(=C\C(=O)Nc1ccc2[nH]nnc2c1)Nc1ccc2[nH]nnc2c1"
Given back: inactive

Asked: I'd appreciate the recorded outcome for "COc1ccc2c(c1)CCN=C2c1ccccc1CCCCl" from this test.
Given back: inactive

Asked: Record lookup: outcome of this test for "CCOC(=O)C1(C(=O)OCC)OC(=O)NC2=C1CCCC2" ?
Given back: inactive

Asked: // param item: COC(=O)C1CC23C=CCN4CC(C2C)C2(c5ccccc5NC12)C43 (stereo not drawn) ; yields the recorded call
Given back: inactive

Asked: Tell me the recorded outcome of this test for OC1/C(=C/c2ccccc2)CNC/C1=C\c1ccccc1 (stereo not drawn) .
Given back: inactive

Asked: For this compound, state the assay outcome: O=C(/C=C1/Nc2ccc([N+](=O)[O-])cc2NC1O)c1cccc([N+](=O)[O-])c1 (stereo not drawn)
Given back: inactive

Asked: Dear all, I need the recorded test outcome for "O=C1CN(c2cccc(C(F)(F)F)c2)C(=O)CN1CCN1CC(=O)N(c2cccc(C(F)(F)F)c2)CC1=O" , thank you.
Given back: inactive

---

# GI50 listing for each entry below
Tested on: SNB-78
Assay: NCI tumour cell line growth inhibition, 48 h
Activity calls are given as the source filed them. No stated cut-off is given here; in the data, active = GI50 up to about 1.1 µM and inactive = higher.

Worked examples, 7 molecules total:
> print(dat)
                                   molecule               result
1  CCOC(=O)C1=C(c2ccccc2)NC(c2ccccc2)=C(C(=O)OCC)c2c1c(=O)cc[nH]c2=O     94 µM (inactive)
2  COC(CC1(OC)OC(=O)C=C1N)OC (stereo not drawn)  > 100 µM (inactive)
3  Nc1nc2ncn(CC(O)CO)c2c(=S)[nH]1 (stereo not drawn)  > 100 µM (inactive)
4                  CN(C=O)/C=C/c1cc(O)ccc1O   30.8 µM (inactive)
5  CSCSCC(N)CO.Cc1[nH]c(=O)[nH]c(=O)c1/C=C/C(=O)O    618 µM (inactive)
6     [N-]=[N+]=Nc1ncnc2c1sc(=S)n2-c1ccccc1  > 100 µM (inactive)
7      CN(C)c1ccc2nc3c(ccc4ccccc43)[o+]c2c1   14.6 µM (inactive)

Asked: Dear colleague, I am looking for the recorded GI50 of the following molecule: "O=c1cc(-c2cccnc2)[nH]c2cc3c(cc12)OCO3"
Given back: 27.7 µM (inactive)

---

GI50 values by entry
Tested on: HCT-116
Assay: NCI tumour cell line growth inhibition, 48 h
The source made the active and inactive calls. Cut-off read from the data, not from the text of the source: active = GI50 up to about 1.1 µM and inactive = higher.

> print(dat)
                                   compound  measured.on               result
1  S=C(NCCCCCCNC(=S)Nc1c2ccccc2nc2ccccc12)Nc1c2ccccc2nc2ccccc12      HCT-116   50.6 µM (inactive)
2          N#Cc1c(Cl)c2cccnc2n2c1nc1ccccc12      HCT-116    1.7 µM (inactive)
3  COc1cc(S(=O)(=O)Nc2ccc(-c3csc(N4C(=O)C(C)SC4c4ccccc4)n3)cc2)ccc1Cl (stereo not given)      HCT-116   34.8 µM (inactive)
4                 CCCCCCOc1ccc(C(=O)NOC)cc1      HCT-116  > 100 µM (inactive)

Here's the next entry for you.
Asked: What measured GI50 goes with "CCOc1ccc(N2C(=O)/C(=C/c3ccc(N(CCC#N)CCC#N)cc3)N=C2c2cc([N+](=O)[O-])ccc2Cl)cc1" ?
Given back: 21.6 µM (inactive)

---

System: MCF7
Assay: NCI tumour cell line growth inhibition, 48 h
Activity calls are given as the source filed them. Rule as the data show it: active = GI50 up to about 1.1 µM and inactive = higher.
experimental.readout: GI50

These solved cases illustrate the format of a correct answer.
> print(dat)
                                   molecule  experimental.readout               result
1  COc1cccc2c(NNc3ccccc3)c3ccc([N+](=O)[O-])cc3nc12                  GI50   26.4 µM (inactive)
2  c1ccc2c(c1)nnn2C1CCCCO1 (stereo not drawn)                  GI50  > 100 µM (inactive)

// next entry
Asked: Tell me the measured GI50 of "COc1ccc2cc(C(=O)CCC(=O)O)ccc2c1" , please.
Given back: > 100 µM (inactive)

---

Tested on: ACHN
Assay: NCI tumour cell line growth inhibition, 48 h
Calls of active or inactive are those of the source. Rule as the data show it: active = GI50 up to about 1.1 µM and inactive = higher.
Your reply should match one of these outcome classes. active, inactive

compound	measured.on	cat
O=c1ccn(C2OC(CN(O)CCC3C(CO)OC(n4ccc(=O)[nH]c4=O)C3O)C(O)C2O)c(=O)[nH]1 (centres undefined)	ACHN	inactive
O=C1c2ccccc2C(=O)c2nc(-c3ccccc3)c(-c3ccccc3)nc21	ACHN	inactive
COC(=O)C(Cc1ccccc1)C(=O)NC(CNC(=O)OCc1ccccc1)C(=O)OCc1ccccc1 (centres undefined)	ACHN	inactive
CCOC(=O)CC1=N/C(=N/C(=N)N[N+](=O)[O-])SC1	ACHN	inactive
CN(C)c1ccc(/C=N/c2ccc(-c3nc4ccccc4o3)cc2)cc1	ACHN	inactive
C[N+]1=C2[B-](C(C)(C)C)=[N+](C(C)(C)C)[B-]2(C(C)(C)C)[N+](C)=C2[B-](C(C)(C)C)=[N+](C(C)(C)C)[B-]21C(C)(C)C (centres undefined)	ACHN	inactive

Asked: Any idea what this test logged for "CN(CCCNC(=O)c1cn(C)c2c1ccc1ccccc12)CCCNC(=O)c1cn(C)c2c1ccc1ccccc12" ?
Given back: inactive

Asked: Tell me the recorded outcome of this test for "C/C(=N\NC(=S)N1CCOCC1)c1nc2cccnc2[nH]1" .
Given back: inactive

Asked: Each compound tested received a call. Report the one for "Cc1cc(N(CCC#N)CCC#N)ccc1C(=N/NC(=O)c1cc(Cl)ccc1O)/N=N/c1cccc([N+](=O)[O-])c1" .
Given back: inactive

Asked: Please let me know the test result on file for O=C1NC(c2cccc(OCc3ccccc3)c2)Nc2ccccc21 (centres undefined) .
Given back: active

Asked: // outcome(item) with item = "COc1ccc2c(c1)c(=O)c1c(NCCN(C)C)ccc3c(=O)n(CCN(C)C)c(=O)n2c31"
Given back: active

Asked: Would you mind telling me which call this test gave OC(c1ccccc1)c1c(-c2ccccc2)oc(-c2ccccc2)c1C(O)c1ccccc1 (centres undefined) ?
Given back: inactive

Asked: For "COc1ccc(C[C@@H](CO)NC2=C(C#N)CCC2)cc1" , what call appears in the results of this test?
Given back: inactive

Asked: Tell me the recorded outcome of this test for "O=C(Oc1cccc(Cl)c1)c1cc2cc(CCl)ccc2oc1=O" .
Given back: inactive

Asked: Could you kindly confirm the outcome this assay logged for C=C(Cl)C(Cl)(CBr)CCC(Br)C(C)(C)Br (centres undefined) ?
Given back: inactive

---

System: UACC-62
Assay: NCI tumour cell line growth inhibition, 48 h
Active and inactive are the calls of the source. Rule as the data show it: active = GI50 up to about 1.1 µM and inactive = higher.
Outcome (select one): active, inactive

Reference set (3 entries):
> print(dat)
                                   compound       cat
1  O=C(OCc1ccccc1)N1CCN(C(=O)OCc2ccccc2)CCN(C(=O)OCc2ccccc2)CCN(C(=O)OCc2ccccc2)CCN(C(=O)OCc2ccccc2)CC1  inactive
2  CCCCCN(CCCCC)C(=O)[C@@H](CCC(=O)OCc1ccccc1)NC(=O)c1cc2ccccc2[nH]1  inactive
3        CC(C)C(=O)[C@@]1(C)SC[C@H]2CCN=C21  inactive

Asked: For this compound, state the assay outcome: "Nc1ccc2nc3n(c(=O)c2c1)CCCCC3"
Given back: inactive

Asked: I'd appreciate the recorded outcome for COc1cc(S(=O)(=O)Nc2ccc(-c3csc(N4C(=O)C(C)SC4c4ccccc4)n3)cc2)ccc1Cl (stereo unspecified) from this test.
Given back: inactive

Asked: How was CC(C)(C)OC(=O)CCC1NC(=O)[C@@H]2Cc3c([nH]c4ccccc34)C(C3CCCCC3)N2C1=O (stereo partly specified) classified in this test?
Given back: inactive

Asked: For C1=CC(N(c2ccccc2)C2C=CCCC2)CCC1 (stereo unspecified) , which call appears in the assay record?
Given back: inactive

Asked: In this assay, the call recorded for "CCCC(CCC(=O)O)(CCC(=O)O)[N+](=O)[O-]" was what?
Given back: inactive

Asked: Look up the recorded call for "Clc1ccc(C2=NCON=C2c2ccc(Cl)cc2)cc1" in this test.
Given back: inactive

Asked: Query: recorded result category for "CCN(CC)CCCNc1nc(=O)[nH]c(C)c1C(=O)Nc1c2ccccc2nc2ccccc12" in this test
Given back: inactive

Asked: Check the results log: what was the call for "CNc1ncccc1Nc1cc(=O)n2c3cccnc3n(C)c2c1" ?
Given back: inactive

Asked: Status in this test for COC(=O)C1CC23C=CCN4CC(C2C)C2(c5ccccc5NC12)C43 (stereo unspecified) ?
Given back: inactive

Asked: How did this test come out for "O=C(c1ccccc1)c1ccc(C(c2c(O)c3ccccc3oc2=O)c2c(O)c3ccccc3oc2=O)cc1" ?
Given back: inactive

Asked: // return assay outcome for "CC(=O)CC(=O)CCC(=O)Nc1cccc(C(F)(F)F)c1"
Given back: inactive

Asked: Outcome? COc1ccc(C(NCCNC(c2ccc(OC)c(OC)c2)c2cc3c(cc2O)OCO3)c2cc3c(cc2O)OCO3)cc1OC (stereo unspecified)
Given back: inactive

Asked: Tell me the recorded outcome of this test for "O=NN(CCCl)C(=O)NCCCl" .
Given back: inactive

Asked: Tell me the assay call for "CC(=O)Nc1ccccc1Sc1ccccc1" please.
Given back: inactive

Asked: What call does the record list for "C/C(=N\Nc1nc2cc(F)ccc2s1)c1ccccn1" ?
Given back: active

Asked: Can you look up the reported call for "COC1(OC)C(/C(N)=C\O)=NC(C)(C)N1O" for me?
Given back: inactive

Asked: Per the assay record, what outcome was assigned to "Cc1c(CCCl)c(N=[N+]=[N-])n2c(nc3ccccc32)c1C#N" ?
Given back: inactive

Asked: Returns: the outcome recorded for "CCOC(=O)c1cc(-c2ccc(OC)cc2)c([N+](=O)[O-])[nH]1" in this assay.
Given back: inactive
